Entries annotated with measured Molar enthalpy of transition or fusion
assay_info: Molar enthalpy of transition or fusion
measurement_setup: Crystal; DSC

{"compound": "CC[C@H](C)[C@H](NC(C)=O)C(=O)NC (racemic) [N-acetyl-N'-methyl-DL-isoleucinamide]", "Molar enthalpy of transition or fusion, kcal/mol": 6.48}
{"compound": "CC[C@H](C)[C@H](NC(C)=O)C(=O)NC [(2S,3S)-2-acetamido-N,3-dimethylpentanamide]", "Molar enthalpy of transition or fusion, kcal/mol": 9.11}
{"compound": "CCC(NC(C)=O)C(=O)NC (centres undefined) [2-acetamido-N-methylbutanamide]", "Molar enthalpy of transition or fusion, kcal/mol": 5.91}
{"compound": "CNC(=O)C1CCCN1C(C)=O (centres undefined) [1-acetyl-N-methylprolinamide]", "Molar enthalpy of transition or fusion, kcal/mol": 6.23}
{"compound": "CNC(=O)[C@@H]1CCCN1C(C)=O [(2S)-1-acetyl-N-methyl-2-pyrrolidinecarboxamide]", "Molar enthalpy of transition or fusion, kcal/mol": 5.96}
{"compound": "CNC(=O)CNC(C)=O [2-acetamido-N-methylacetamide]", "Molar enthalpy of transition or fusion, kcal/mol": 5.65}
{"compound": "CCCC(NC(C)=O)C(=O)NC (racemic) [N-acetyl-N'-methyl-DL-norvalinamide]", "Molar enthalpy of transition or fusion, kcal/mol": 6.27}
{"compound": "CNC(=O)[C@H](CC(C)C)NC(C)=O [(S)-2-acetamido-N,4-dimethylpentanamide]", "Molar enthalpy of transition or fusion, kcal/mol": 5.54}
{"compound": "CCCCC(NC(C)=O)C(=O)NC (centres undefined) [2-acetamido-N-methylhexanamide]", "Molar enthalpy of transition or fusion, kcal/mol": 8.21}

---

Entries annotated with measured Triple point temperature
measurement_setup: Crystal; DTA
parameter: Triple point temperature (K)

{"molecule": "CC[C@H](C)[C@H](NC(C)=O)C(=O)NC (racemic) [N-acetyl-N'-methyl-DL-isoleucinamide]", "parameter": "Triple point temperature", "units_text": "K", "observed": 482.02}
{"molecule": "CCC(NC(C)=O)C(=O)NC (stereo not given) [2-acetamido-N-methylbutanamide]", "parameter": "Triple point temperature", "units_text": "K", "observed": 434.83}
{"molecule": "CNC(=O)CNC(C)=O [2-acetamido-N-methylacetamide]", "parameter": "Triple point temperature", "units_text": "K", "observed": 430.73}
{"molecule": "CNC(=O)[C@H](CC(C)C)NC(C)=O [(S)-2-acetamido-N,4-dimethylpentanamide]", "parameter": "Triple point temperature", "units_text": "K", "observed": 438.2}
{"molecule": "CNC(=O)[C@@H]1CCCN1C(C)=O [(2S)-1-acetyl-N-methyl-2-pyrrolidinecarboxamide]", "parameter": "Triple point temperature", "units_text": "K", "observed": 375.85}

---

measurement_setup: Crystal; DTA

{"compound": "CNC(=O)C1CCCN1C(C)=O (centres undefined) [1-acetyl-N-methylprolinamide]", "units_text": "K", "Triple point temperature": 378.12}
{"compound": "CCCC(NC(C)=O)C(=O)NC (racemic) [N-acetyl-N'-methyl-DL-norvalinamide]", "units_text": "K", "Triple point temperature": 432.29}
{"compound": "CCCCC(NC(C)=O)C(=O)NC (centres undefined) [2-acetamido-N-methylhexanamide]", "units_text": "K", "Triple point temperature": 444}
{"compound": "CC[C@H](C)[C@H](NC(C)=O)C(=O)NC [(2S,3S)-2-acetamido-N,3-dimethylpentanamide]", "units_text": "K", "Triple point temperature": 525.72}
